# Tested on: Pseudomonas aeruginosa
# protocolSummary: microbe, parasite or virus in culture
# testContext: ATCC 27853, 18 h, ASSAY_TEST Inhibition of Bacterial Growth, detection method Absorption (OD600), MEDIA CAMHB, plate type 384well, NBS, CORNING #3640
# Description: Antibacterial activity against Pseudomonas aeruginosa ATCC 27853 (CO-ADD:GN_042); MIC in CAMBH media using NBS plates, by OD(600)
measurementKind: MIC

COc1ccccc1/C=C/C(=O)/C=C/c1ccccc1O ... > 10 µM
Nc1ccc(Cn2ccc3c4c(N)nc(N)nc4ccc32)cc1 ... 5 µM

Which MIC is listed for "Oc1c(CN2CCN(c3ccccc3)CC2)cc(Br)c2cccnc12" ?
> 10 µM

Okay, and "C/C(=N/NC(=S)N1CC2CCC(CC2)C1)c1cnccn1" ?
> 10 µM

And COC(=O)N1C2CCCCC2=NN(c2ccccc2)N1C(=O)OC (centres undefined) ?
> 10 µM

Further, for "CC1(C)CC(=O)CC(C)(C)N1O" ?
> 10 µM

For "CC(C)=NNc1ncnc2[nH]cnc12" then?
> 10 µM

Then this compound: "O=[N+]([O-])c1ccc(/C=[N+](\[O-])CCO)o1"
> 10 µM

---

MIC, Cryptococcus neoformans, per-entry values.

Study these solved cases before continuing.
Cc1ccc([S+]([O-])c2ccc([N+](=O)[O-])c3nonc23)cc1 (stereo unspecified) ... > 10 µM
Oc1ccc2ccccc2c1/N=N/c1nccs1 ... 2.5 µM
O=[N+]([O-])c1cc(F)c2cccnc2c1O ... 10 µM
COC1CC(C)C(OC)c2cc(O)cc(c2O)NC(=O)/C(C)=C/C=C\C(C)C(OC(N)=O)/C(C)=C\C(C)C1OC (stereo unspecified) ... > 10 µM
Cc1ccc2ccc(C#N)cc2c1O ... > 10 µM

Please look up its MIC: COC(=O)N1C2CCCCC2=NN(c2ccccc2)N1C(=O)OC (stereo unspecified)
> 10 µM

---

# Tested on: HEK293
# protocolSummary: cells
# Type: functional
# testContext: Homo sapiens, ATCC CRL1573, HEK293; ASSAY_TEST Inhibition of Cell Viability; detection method Resazurin; Fluorescence (ex560/em590); MEDIA DMEM with 10% FBS; plate type 384well; TC; CORNING #3712; time 18 hr
# CC50 annotations

COC12C(COC(N)=O)C3=C(C(=O)C(C)=C(N)C3=O)N1CC1C2N1C (stereo not given) ... > 10 µM

CC50 of OC(c1cc(-c2ccc(Cl)cc2)nc2ccccc12)C1CCCCN1 (stereo not given) on HEK293?
> 10 µM

Same question for "Oc1c(CN2CCN(c3ccccc3)CC2)cc(Br)c2cccnc12" please.
> 10 µM

Try this compound too: "CO[C@@]12[C@H](COC(N)=O)C3=C(C(=O)C(C)=C(N)C3=O)N1C[C@@H]1N[C@@H]12"
9.02 µM

Now the compound "O=[N+]([O-])c1cc([N+](=O)[O-])c2cccnc2c1O"
> 10 µM

What do we get for "C1C2CC3C1C3/C2=N\N=C1/C2CC3C(C2)C13" ?
> 10 µM

Try this compound next: "O=[N+]([O-])c1ccc(-c2ccccc2)c([As](=O)(O)O)c1"
> 10 µM

Param item: "Cc1c(-c2ccccc2)n(O)[n+]([O-])c1-c1ccccc1"
> 10 µM

Then this compound: O=C(c1cccnc1)C1Cc2ccccc2C1=O (stereo not given)
> 10 µM

Input "CC1=C(O)C(=O)C=C2C1=CC=C1[C@@]2(C)CC[C@@]2(C)[C@@H]3C[C@](C)(C(=O)O)CC[C@]3(C)CC[C@]12C"
0.837 µM
